Readings of growth for the listed molecules
test system: LOX IMVI melanoma; experiment: NCI-60 one-dose screen, 48 h (100 = growth as untreated, 0 = no growth, -100 = all killed); settings: 10 µM unless noted
About 83,000 compounds went through this panel and 20% of them were active in at least one assay; those are over-represented in the sample as a whole.
Please state the figure in %; there is no need to write the unit.

{"columns": ["molecule", "measurement-target", "parameter-measured", "measurement-units", "result-number"],
 "data": [
  ["O=C(c1cccc(F)c1)n1ccc2cc(NC(=S)Nc3cccnc3)ccc21", "LOX IMVI melanoma", "growth", "%", 99]
]}

Requested read-out growth, target or system LOX IMVI melanoma, entry COc1cc(/C=C2\SC(=O)NC2=O)ccc1OCC(=O)Nc1ccc(C(=O)/C=C/c2cc3ccccc3nc2Cl)cc1 81.6

Requested read-out growth, target or system LOX IMVI melanoma, entry Cn1c2ccccc2c2c3c(c4c5ccc(Br)cc5oc4c21)C(=O)N(O)C3=O -88.8

Requested read-out growth, target or system LOX IMVI melanoma, entry O=C(/C=C1\C=CN(CCCCO)c2ccccc21)n1ccc2ccccc21 114

* * *

tested on: MCF7 breast; assay: NCI-60 one-dose screen, 48 h; details: 10 µM unless noted
The panel holds about 83,000 compounds, 20% with a hit somewhere; the sample as a whole holds those more often. Calls of active or inactive are those of the source. Rule for the calls: active = growth percent below 10; inactive = the rest.
// classify into class 1 for active, class 0 for inactive

{"columns": ["compound", "label"],
 "data": [
  ["IP(CCCSc1n(Cc2ccc3ccccc3c2)c(-c2ccccc2)c(-c2ccccc2)[n+]1Cc1ccc2ccccc2c1)(c1ccccc1)(c1ccccc1)c1ccccc1", "class 1"],
  ["CCOC(=O)c1c(NCC(=O)Nc2cccc(Cl)c2)sc2c1CCCC2", "class 0"],
  ["CCCC(=O)NC(c1cccnc1)c1cc(Cl)c2cccnc2c1O (configuration not stated)", "class 0"],
  ["COc1cc(C(=O)C[n+]2ccc3ccccc3c2)cc(OC)c1OC", "class 0"],
  ["C=C(C)C(=O)O[C@H]1C[C@@]2(C)OC(=CC2=O)/C(CO)=C\\[C@H]2OC(=O)C(=C)[C@H]12", "class 1"]
]}

Hi team, can someone confirm the assay call for O=C1[C@H]2Cc3c([nH]c4ccccc34)[C@@H](c3ccc(Cl)cc3)N2C(=O)CN1C1CCN(Cc2c(Cl)cccc2Cl)CC1 ? class 0

Hi team, can someone confirm the assay call for NS(=O)(=O)c1ccc(-n2cc(CC=O)nn2)cc1 ? class 0

Hi team, can someone confirm the assay call for O=C(NCCCNc1cc(-c2cn(-c3ccccc3)nc2-c2cccc(O)c2)ccn1)Nc1cc(C(F)(F)F)cc(C(F)(F)F)c1 ? class 0

Hi team, can someone confirm the assay call for CCOC(=O)C1=C(C)Nc2nnc(Nc3ccccc3)n2C1c1ccccc1 (configuration not stated) ? class 0

Hi team, can someone confirm the assay call for N#C/C(=C\c1ccc(-c2ccc(F)cc2)o1)C(=O)Nc1ncc(Cc2ccc(Cl)cc2Cl)s1 ? class 1

Hi team, can someone confirm the assay call for c1ccc(-c2n(Cc3ccc4ccccc4c3)c3c4ccccc4c4ccccc4c3[n+]2Cc2ccc3ccccc3c2)cc1 ? class 1

Hi team, can someone confirm the assay call for O=C1c2cc(Br)ccc2-n2c1nc1cc(Br)ccc1c2=O ? class 0

Hi team, can someone confirm the assay call for O=[N+]([O-])c1ccc(-c2nnc(SCc3ccc(O)c4ncccc34)o2)cc1 ? class 1

Hi team, can someone confirm the assay call for COc1cc(/C=N/Nc2ccnc3cc(Cl)ccc23)cc(OC)c1O ? class 1

Hi team, can someone confirm the assay call for COC(=O)c1c(C(=O)OC)c2n(CC(=O)Nc3cccc4cccnc34)c3ccccc3n2c1C(=O)c1ccc(C)cc1 ? class 0

Hi team, can someone confirm the assay call for C#C[C@]1(O)CC[C@H]2[C@@H]3CC=C4c5sc(C6CC6)nc5CC[C@]4(C)[C@H]3CC[C@@]21C ? class 0

Hi team, can someone confirm the assay call for Cc1ccc(/C=C/c2nn3c(-c4ccco4)nnc3s2)cc1 ? class 0

Hi team, can someone confirm the assay call for Cn1c2ccc(Br)cc2c2c3c(c4c5cc(F)ccc5oc4c21)C(=O)N(O)C3=O ? class 0

Hi team, can someone confirm the assay call for CCOC(=O)C1=C(C)Nc2nc3ccccc3n2C1c1ccccc1 (configuration not stated) ? class 0

Hi team, can someone confirm the assay call for CC[C@@](C)(NC(=O)C(C)(C)NC(=O)[C@@H](NC(=O)[C@@H]1CCCN1C(=O)C(C)(C)NC(=O)[C@H](CC(C)C)NC(=O)CNC(=O)C(C)(C)NC(=O)[C@@H](NC(=O)C(C)(C)NC(=O)[C@H](CCC(N)=O)NC(=O)[C@H](C)NC(=O)C(C)(C)NC(=O)[C@H](C)NC(=O)C(C)(C)NC(=O)[C@@H]1CCCN1C(=O)C(C)(C)NC(C)=O)C(C)C)C(C)C)C(=O)N[C@@H](CCC(N)=O)C(=O)N[C@@H](CCC(N)=O)C(=O)N[C@H](CO)Cc1ccccc1 ? class 1

Hi team, can someone confirm the assay call for COc1ccc(C2C(C#N)=C(N)Oc3c2sc2ccc(C)cc32)cc1 (configuration not stated) ? class 0
